From: ChEMBL document CHEMBL1201862

test system: M19-MEL; test: NCI tumour cell line growth inhibition, 48 h
The source made the active and inactive calls. No stated cut-off is given here; in the data, active = GI50 up to about 1.1 µM and inactive = higher.
Parameter: GI50. Scope: all listed entries.

Some compounds with recorded GI50:
compound=COC(=O)[C@]12CSCN1C(=O)C(C(C)=O)=NN2C(=O)[C@](OC)(c1ccccc1)C(F)(F)F result="> 100 µM (inactive)"
compound="O=C(NC1CCCC1=O)c1ccccc1 (stereo unspecified)" result="> 100 µM (inactive)"
compound="Cc1ccc(NC(=O)CC2C(=O)Nc3ccccc3S2(=O)=O)cc1C (stereo unspecified)" result="> 100 µM (inactive)"
compound="Nc1ncn(C2C=C(CO)C(O)C2O)c(=O)n1 (stereo unspecified)" result="> 100 µM (inactive)"
compound="NC(CN(O)N=O)C(=O)O (stereo unspecified)" result="14.1 µM (inactive)"

As a next step, examine the compound that follows.
Can you share its GI50? I mean this compound: `O=C(O)CN(c1ccccc1)S(=O)(=O)c1ccc(NC(=O)c2ccccc2)cc1`
> 100 µM (inactive)

---

test system: OVCAR-5; assay: NCI tumour cell line growth inhibition, 48 h
Active and inactive are the calls of the source. No stated cut-off is given here; in the data, active = GI50 up to about 1.1 µM and inactive = higher.
value type: GI50

Some compounds with recorded GI50:
compound="O=CC1C[C@@H](N2C(=O)O[C@@H](c3ccccc3)[C@H]2c2ccccc2)[C@@H]1COCc1ccccc1 (stereo not given in full)" result="22.4 µM (inactive)"
compound="CON(C)C(=O)C(Cc1ccccc1)NC(=O)OCc1ccccc1 (stereo not given)" result="> 100 µM (inactive)"
compound="CC(=O)OCC1OC(n2c3c(c(-c4ccc(C)cc4)c(C#N)c2=S)C(=O)CC(C)(C)C3)C(OC(C)=O)C(OC(C)=O)C1OC(C)=O (stereo not given)" result="> 100 µM (inactive)"
compound=CCN(CC)C(=S)Oc1cc2oc(=O)cc(C)c2cc1Cl result="> 100 µM (inactive)"

Can you share its GI50? I mean this compound: CC(Oc1ccccc1Cl)C(=O)NN1C(=O)CSC1c1ccc(Cl)cc1 (stereo not given)
22.8 µM (inactive)

Can you share its GI50? I mean this compound: `CNC(=S)N/N=C(\C)c1cc(OC)ccc1O`
> 100 µM (inactive)

Can you share its GI50? I mean this compound: `O=C(/C=C/c1c[nH]c2ccccc12)c1ccccc1O`
13.6 µM (inactive)

Can you share its GI50? I mean this compound: COc1ccc(NC(=O)CC(=O)NNC(Sc2ccccc2)c2cc(/N=N/c3ccc(Br)cc3)ccc2O)cc1 (stereo not given)
> 10 µM (inactive)

Can you share its GI50? I mean this compound: CC(OC(C)(C)C)[C@H](NC(=O)OC(C)(C)C)C(=O)O (stereo not given in full)
> 100 µM (inactive)

Can you share its GI50? I mean this compound: C=CC1(CC)/C(=N\O)C(CC)(CC)C(=O)N1O (stereo not given)
> 100 µM (inactive)

Can you share its GI50? I mean this compound: `CN(C)CCNC(=O)Cc1ccccc1Nc1c(Cl)cccc1Cl`
11.7 µM (inactive)

Can you share its GI50? I mean this compound: `N=C(N)N/N=C\c1ccc(C2CCNCC2)cc1`
> 100 µM (inactive)

Can you share its GI50? I mean this compound: `CC(=O)Nc1ccc(/C=C/C(=O)c2sc(-c3nc(C)c(C(=O)/C=C/c4ccc(NC(C)=O)cc4)s3)nc2C)cc1`
> 100 µM (inactive)

Can you share its GI50? I mean this compound: Cc1cc2c(cc1C)C(=O)C1(C2)Cc2cc3c(cc2C1=O)CCC3 (stereo not given)
> 100 µM (inactive)

Can you share its GI50? I mean this compound: O=C(CN1CCCCC1)Nc1ccc2c(c1)C1Oc3ccccc3CC1CO2 (stereo not given)
18.7 µM (inactive)

Can you share its GI50? I mean this compound: `Cc1cc(S(=O)(=O)/N=C(\NN)NNc2cccc(C(F)(F)F)n2)c(S)cc1Cl`
14.9 µM (inactive)

Can you share its GI50? I mean this compound: `COc1cc(S(=O)(=O)Nc2nc(-c3ccc(N4C(=O)/C(=C/C=C/c5ccccc5)N=C4c4ccccc4)cc3)cs2)ccc1Cl`
> 100 µM (inactive)

Can you share its GI50? I mean this compound: `O=c1cc(N2CCCC2)[nH]c(=O)n1Cc1ccccc1`
> 100 µM (inactive)

Can you share its GI50? I mean this compound: `CC(=O)O[C@H]1/C(=C/c2ccncc2)C[C@H]2[C@@H]3CC=C4C[C@@H](N5CCCC5)CC[C@]4(C)[C@H]3CC[C@]12C`
13.2 µM (inactive)

Can you share its GI50? I mean this compound: CC1C2C=CC1C(c1c3ccc(=O)c(O)c-3oc3c(O)c(O)ccc13)C2C(=O)O (stereo not given)
> 100 µM (inactive)
